Reported microsomal CLint values for a set of compounds
# experiment: Microsomal stability in mouse liver microsomes assessed as intrinsic clearance preincubated for 5 mins followed by NADPH addition measured upto 60 mins by LC-MS/MS analysis
# Format: ADME, Microsome
# test-context: time < 65 min, read-out: CLH
measurement-name: microsomal CLint (µL/min/mg)

compound: COc1cc(NC(C(=O)c2c[nH]c3cc(OC)c(C)cc23)c2ccc(F)cc2OC)cc(OCCO)c1 (single isomer, unassigned; (+))
value-operator: <
observed-result: 8
//
compound: COc1cc(NC(C(=O)c2c[nH]c3c(C)c(OC)ccc23)c2ccc(F)cc2OC)cc(OCCO)c1 (single isomer, unassigned; (+))
value-operator: <
observed-result: 8
//
compound: COc1cc(NC(C(=O)c2c[nH]c3ccc(F)cc23)c2ccc(F)cc2)cc(OCCO)c1 (stereo unspecified)
value-operator: =
observed-result: 50
//
compound: COc1cc(NC(C(=O)c2c[nH]c3c(F)c(F)ccc23)c2ccc(F)cc2OC)cc(OCCO)c1 (stereo unspecified)
value-operator: =
observed-result: 8
//
compound: COc1cc(NC(C(=O)c2c[nH]c3cc(F)c(F)cc23)c2ccc(F)cc2OC)cc(OCCO)c1 (single isomer, unassigned; (+))
value-operator: =
observed-result: 10
//
compound: COc1cc(NC(C(=O)c2c[nH]c3c(Cl)c(OC)ccc23)c2ccc(F)cc2OC)cc(OCCO)c1 (stereo unspecified)
value-operator: =
observed-result: 9
//
compound: COc1cc(NC(C(=O)c2c[nH]c3cc(OC)c(C)cc23)c2ccc(Cl)cc2OC)cc(OCCO)c1 (single isomer, unassigned; (+))
value-operator: <
observed-result: 8
//
compound: COc1cc(NC(C(=O)c2c[nH]c3ccccc23)c2ccccc2)cc(OCCO)c1 (stereo unspecified)
value-operator: =
observed-result: 201
//
compound: COc1cc(NC(C(=O)c2c[nH]c3c(C)c(Cl)ccc23)c2ccc(F)cc2OC)cc(OCCO)c1 (single isomer, unassigned; (+))
value-operator: <
observed-result: 8
//
compound: COc1cc(NC(C(=O)c2c[nH]c3cc(Cl)ccc23)c2ccc(F)cc2OC)cc(OCCO)c1 (stereo unspecified)
value-operator: <
observed-result: 8
//
compound: COc1cc(NC(C(=O)c2c[nH]c3cc(F)ccc23)c2ccc(Cl)cc2OC)cc(OCCO)c1 (single isomer, unassigned; (+))
value-operator: =
observed-result: 32
//
compound: COc1cc(NC(C(=O)c2c[nH]c3c(C)c(F)ccc23)c2ccc(F)cc2OC)cc(OCCO)c1 (single isomer, unassigned; (+))
value-operator: <
observed-result: 8
//
compound: COc1cc(NC(C(=O)c2c[nH]c3cc(OC)c(F)cc23)c2ccc(F)cc2OC)cc(OCCO)c1 (single isomer, unassigned; (+))
value-operator: <
observed-result: 8
//
compound: COc1cc(NC(C(=O)c2c[nH]c3cc(F)ccc23)c2ccc(F)cc2OC)cc(OCCO)c1 (stereo unspecified)
value-operator: =
observed-result: 26
//
compound: COc1cc(NC(C(=O)c2c[nH]c3c(F)cc(C)cc23)c2ccc(F)cc2OC)cc(OCCO)c1 (single isomer, unassigned; (+))
value-operator: =
observed-result: 10
//
compound: COc1cc(NC(C(=O)c2c[nH]c3cc(F)ccc23)c2ccc(F)cc2)cc(OCCO)c1 (stereo in doubt)
value-operator: =
observed-result: 26

* * *

# experiment: Half life in Sprague-Dawley rat at 2.5 mg/kg, iv measured by LC-MS/MS analysis
# Type: ADME, organism-based
# test-context: in vivo

molecule: COc1cc(NC(C(=O)c2c[nH]c3cc(F)ccc23)c2ccc(F)cc2OC)cc(OCCO)c1 (centres undefined)
half-life: 3.2 h
--
molecule: COc1cc(NC(C(=O)c2c[nH]c3cc(F)ccc23)c2ccc(F)cc2)cc(OCCO)c1 (stereo in doubt)
half-life: 6 h
--
molecule: COc1cc(NC(C(=O)c2c[nH]c3c(C)c(Cl)ccc23)c2ccc(F)cc2OC)cc(OCCO)c1 (single isomer, unassigned; (+))
half-life: 7 h
--
molecule: COc1cc(NC(C(=O)c2c[nH]c3c(C)c(F)ccc23)c2ccc(F)cc2OC)cc(OCCO)c1 (single isomer, unassigned; (+))
half-life: 6.5 h

* * *

# experiment: Metabolic stability in human hepatocytes assessed as intrinsic clearance measured per million cells incubated upto 120 mins by MS analysis
# Assay type: ADME, cell-based, Hepatocyte
# test-context: read-out: CLH
Attribute: hepatocyte CLint
measurement-name: hepatocyte CLint

molecule: COc1cc(NC(C(=O)c2c[nH]c3cc(F)ccc23)c2ccc(Cl)cc2OC)cc(OCCO)c1 (single isomer, unassigned; (+))
observed-result: < 1.9 µL/min/1e6 cells

molecule: COc1cc(NC(C(=O)c2c[nH]c3cc(OC)c(C)cc23)c2ccc(Cl)cc2OC)cc(OCCO)c1 (single isomer, unassigned; (+))
observed-result: < 1.9 µL/min/1e6 cells

* * *

# experiment: AUC last in Sprague-Dawley rat at 10 mg/kg, po measured upto 24 to 48 hrs by LC-MS/MS analysis
# Format: ADME, organism-based
# Set-up: time upper 48 hrs, dose 10 mg/kg, time lower 24 hrs, route po
# test-context: in vivo
Overview of recorded AUC(0-t) for various molecules

molecule: COc1cc(NC(C(=O)c2c[nH]c3c(C)c(Cl)ccc23)c2ccc(F)cc2OC)cc(OCCO)c1 (single isomer, unassigned; (+))
endpoint-unit: ng·h/mL
AUC(0-t): 7600

molecule: COc1cc(NC(C(=O)c2c[nH]c3cc(F)ccc23)c2ccc(F)cc2)cc(OCCO)c1 (stereo in doubt)
endpoint-unit: ng·h/mL
AUC(0-t): 4370

molecule: COc1cc(NC(C(=O)c2c[nH]c3c(C)c(F)ccc23)c2ccc(F)cc2OC)cc(OCCO)c1 (single isomer, unassigned; (+))
endpoint-unit: ng·h/mL
AUC(0-t): 8290

* * *

# experiment: Cmax in CD-1 mouse at 10 mg/kg, po measured for 0.5 to 24 hrs by LC-MS/MS analysis
# Assay type: ADME, organism-based
# Parameters: dose 10 mg/kg, time 0.5-24 hrs, route po
# test-context: in vivo

compound: COc1cc(NC(C(=O)c2c[nH]c3cc(F)ccc23)c2ccc(Cl)cc2OC)cc(OCCO)c1 (single isomer, unassigned; (+))
Cmax, µg/mL: 1.72
--
compound: COc1cc(NC(C(=O)c2c[nH]c3cc(OC)c(C)cc23)c2ccc(Cl)cc2OC)cc(OCCO)c1 (single isomer, unassigned; (+))
Cmax, µg/mL: 1.76

* * *

# experiment: Volume of distribution at steady state in CD-1 mouse at 2.5 mg/kg, iv measured for 0.12 to 24 hrs by LC-MS/MS analysis
# Type: ADME, organism-based
# test-context: in vivo, time 0.12-24 hrs, read-out: Vdss
compounds and their reported Vd
measurement-name: Vd (L/kg)

compound: COc1cc(NC(C(=O)c2c[nH]c3cc(F)ccc23)c2ccc(Cl)cc2OC)cc(OCCO)c1 (single isomer, unassigned; (+))
observed-result: 2
//
compound: COc1cc(NC(C(=O)c2c[nH]c3cc(OC)c(C)cc23)c2ccc(Cl)cc2OC)cc(OCCO)c1 (single isomer, unassigned; (+))
observed-result: 3.3

* * *

Target or system UniProtKB Q12809; recorded quantity pIC50.
Sequence (Q12809 whole entry): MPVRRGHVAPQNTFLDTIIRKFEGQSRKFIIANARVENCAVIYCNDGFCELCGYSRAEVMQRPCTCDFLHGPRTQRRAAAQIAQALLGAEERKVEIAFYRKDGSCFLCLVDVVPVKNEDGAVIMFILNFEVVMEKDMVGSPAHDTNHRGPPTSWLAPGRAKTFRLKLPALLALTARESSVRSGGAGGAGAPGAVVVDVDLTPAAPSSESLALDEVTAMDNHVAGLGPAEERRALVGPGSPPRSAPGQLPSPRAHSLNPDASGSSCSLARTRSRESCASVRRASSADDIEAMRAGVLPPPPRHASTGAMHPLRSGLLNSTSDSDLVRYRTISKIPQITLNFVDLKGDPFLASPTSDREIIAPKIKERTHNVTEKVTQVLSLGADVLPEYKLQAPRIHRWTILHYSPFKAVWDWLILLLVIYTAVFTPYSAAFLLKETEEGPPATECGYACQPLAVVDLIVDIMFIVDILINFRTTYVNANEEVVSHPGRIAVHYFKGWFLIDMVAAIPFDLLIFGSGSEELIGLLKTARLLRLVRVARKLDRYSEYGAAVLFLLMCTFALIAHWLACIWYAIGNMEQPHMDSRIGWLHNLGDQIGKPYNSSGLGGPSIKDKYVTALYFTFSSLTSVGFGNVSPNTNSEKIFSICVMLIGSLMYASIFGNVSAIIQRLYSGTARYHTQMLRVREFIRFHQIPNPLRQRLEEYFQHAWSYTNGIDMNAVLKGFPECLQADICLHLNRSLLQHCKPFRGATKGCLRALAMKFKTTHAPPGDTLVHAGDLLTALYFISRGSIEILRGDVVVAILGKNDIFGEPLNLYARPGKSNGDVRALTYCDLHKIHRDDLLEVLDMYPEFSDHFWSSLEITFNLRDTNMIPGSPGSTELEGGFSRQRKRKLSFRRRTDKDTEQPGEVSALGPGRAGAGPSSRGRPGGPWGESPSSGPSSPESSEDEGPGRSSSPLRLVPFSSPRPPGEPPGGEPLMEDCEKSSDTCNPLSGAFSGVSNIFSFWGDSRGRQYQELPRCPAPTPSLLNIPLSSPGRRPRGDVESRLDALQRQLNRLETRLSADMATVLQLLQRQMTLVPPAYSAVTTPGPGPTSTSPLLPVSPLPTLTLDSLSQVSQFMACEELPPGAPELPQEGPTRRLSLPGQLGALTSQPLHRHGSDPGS
pIC50: −log10 of the molar value.
measurement-name: pIC50

compound: COc1cc(NC(C(=O)c2c[nH]c3cc(F)ccc23)c2ccc(Cl)cc2OC)cc(OCCO)c1 (single isomer, unassigned; (+))
value-operator: =
observed-result: 5.00

compound: COc1cc(NC(C(=O)c2c[nH]c3cc(OC)c(C)cc23)c2ccc(Cl)cc2OC)cc(OCCO)c1 (single isomer, unassigned; (+))
value-operator: <
observed-result: 5.00

* * *

# experiment: Kinetic solubility of the compound in aqueous buffer at pH 2 measured after 4 hrs by UPLC/UV analysis
# Type: physicochemical
# test-context: read-out: Kinetic_solubility
Entries and their measured solubility kinetic at 4 h follow.
measurement-name: solubility kinetic at 4 h (µM)

molecule: COc1cc(NC(C(=O)c2c[nH]c3c(C)c(Cl)ccc23)c2ccc(F)cc2OC)cc(OCCO)c1 (single isomer, unassigned; (+))
observed-result: 5

molecule: COc1cc(NC(C(=O)c2c[nH]c3c(C)c(F)ccc23)c2ccc(F)cc2OC)cc(OCCO)c1 (single isomer, unassigned; (+))
observed-result: 34

molecule: COc1cc(NC(C(=O)c2c[nH]c3cc(F)ccc23)c2ccc(F)cc2OC)cc(OCCO)c1 (centres undefined)
observed-result: 69

molecule: COc1cc(NC(C(=O)c2c[nH]c3cc(OC)c(C)cc23)c2ccc(F)cc2OC)cc(OCCO)c1 (single isomer, unassigned; (+))
observed-result: 65

* * *

Below: a set of entries, each annotated with reported Cmax.
# experiment: Cmax in Sprague-Dawley rat at 10 mg/kg, po measured upto 24 to 48 hrs by LC-MS/MS analysis
# Type: ADME, organism-based
# Design: time upper 48 hrs, dose 10 mg/kg, time lower 24 hrs, route po
# test-context: in vivo

molecule: COc1cc(NC(C(=O)c2c[nH]c3cc(F)ccc23)c2ccc(F)cc2)cc(OCCO)c1 (stereo in doubt)
Cmax, ng/mL: 295
--
molecule: COc1cc(NC(C(=O)c2c[nH]c3cc(OC)c(C)cc23)c2ccc(F)cc2OC)cc(OCCO)c1 (single isomer, unassigned; (+))
Cmax, ng/mL: 350
--
molecule: COc1cc(NC(C(=O)c2c[nH]c3cc(F)ccc23)c2ccc(Cl)cc2OC)cc(OCCO)c1 (single isomer, unassigned; (+))
Cmax, ng/mL: 192
--
molecule: COc1cc(NC(C(=O)c2c[nH]c3c(C)c(F)ccc23)c2ccc(F)cc2OC)cc(OCCO)c1 (single isomer, unassigned; (+))
Cmax, ng/mL: 573
--
molecule: COc1cc(NC(C(=O)c2c[nH]c3cc(F)ccc23)c2ccc(F)cc2OC)cc(OCCO)c1 (configuration not stated)
Cmax, ng/mL: 135
--
molecule: COc1cc(NC(C(=O)c2c[nH]c3c(C)c(Cl)ccc23)c2ccc(F)cc2OC)cc(OCCO)c1 (single isomer, unassigned; (+))
Cmax, ng/mL: 294
--
molecule: COc1cc(NC(C(=O)c2c[nH]c3cc(OC)c(C)cc23)c2ccc(Cl)cc2OC)cc(OCCO)c1 (single isomer, unassigned; (+))
Cmax, ng/mL: 365
